target: Cannabinoid receptor 2 (Homo sapiens, UniProt P34972); test: Displacement of [3H]CP55940 from human CB2 receptor expressed in CHO cell membrane incubated for 2 hrs; type: cell membranes; conditions: read-out: IC50
Sequence (P34972 whole entry): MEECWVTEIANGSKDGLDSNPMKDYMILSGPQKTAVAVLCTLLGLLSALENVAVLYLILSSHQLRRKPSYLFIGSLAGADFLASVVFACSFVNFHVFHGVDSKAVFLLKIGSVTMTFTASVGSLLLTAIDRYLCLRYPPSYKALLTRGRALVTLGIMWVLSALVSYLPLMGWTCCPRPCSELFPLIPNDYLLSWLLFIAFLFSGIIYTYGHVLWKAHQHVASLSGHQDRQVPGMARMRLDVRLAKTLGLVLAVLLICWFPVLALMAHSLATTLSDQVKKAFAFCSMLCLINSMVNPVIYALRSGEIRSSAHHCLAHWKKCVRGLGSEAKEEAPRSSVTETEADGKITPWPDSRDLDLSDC
READOUT KIND: IC50 (nM)
# value in nM; strip the unit string

MOLECULE	TARGET OR SYSTEM	UOM	IC50
Cc1c(Br)cc(C(=O)NC2CCCCCC2)c(=O)n1CCCn1cc(CCC(=O)NCC(c2ccccc2)c2c(-c3ccccc3)[nH]c3ccccc23)nn1 (configuration not stated)	Cannabinoid receptor 2 (Homo sapiens, UniProt P34972)	nM	6.3

Then there is this molecule:
Prompt line: What value of measured IC50 is listed for Cc1c(Br)cc(C(=O)NC2CCCCCC2)c(=O)n1CCCn1cc(CCCC(=O)NCC(c2ccccc2)c2c(-c3ccccc3)[nH]c3ccccc23)nn1 (configuration not stated) ?
Response line: 100
